study system: Recombinant Human PSMA/FOLH1 Protein (Homo sapiens (Human))
Sequence (Q04609 whole entry): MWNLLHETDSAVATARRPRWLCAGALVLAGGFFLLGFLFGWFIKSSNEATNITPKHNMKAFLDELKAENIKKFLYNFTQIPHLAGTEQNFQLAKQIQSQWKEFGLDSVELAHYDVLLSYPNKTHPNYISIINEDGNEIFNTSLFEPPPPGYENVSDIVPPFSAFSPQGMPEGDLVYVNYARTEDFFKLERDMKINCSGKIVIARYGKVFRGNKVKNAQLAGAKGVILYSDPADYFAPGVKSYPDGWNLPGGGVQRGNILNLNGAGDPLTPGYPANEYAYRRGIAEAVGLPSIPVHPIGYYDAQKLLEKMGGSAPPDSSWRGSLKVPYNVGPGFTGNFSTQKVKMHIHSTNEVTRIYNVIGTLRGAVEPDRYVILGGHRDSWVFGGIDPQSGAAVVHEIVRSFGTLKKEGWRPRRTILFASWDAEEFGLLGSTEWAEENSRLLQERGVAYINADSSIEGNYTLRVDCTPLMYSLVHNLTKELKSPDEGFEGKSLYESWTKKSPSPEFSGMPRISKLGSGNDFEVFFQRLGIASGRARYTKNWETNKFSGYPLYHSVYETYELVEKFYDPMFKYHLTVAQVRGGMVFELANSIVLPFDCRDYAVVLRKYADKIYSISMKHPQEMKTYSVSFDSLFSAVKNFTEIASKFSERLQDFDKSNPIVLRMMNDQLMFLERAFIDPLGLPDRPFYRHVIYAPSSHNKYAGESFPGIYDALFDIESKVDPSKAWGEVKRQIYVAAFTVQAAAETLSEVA
experimental details: Inhibition assay (Amplex Red glutamic acid/glutamate oxidase, NAAG substrate)
conditions used: Target PSMA; calculated based on Cheng-Prusoff equation; average of N replicates
property label: pKi
# pKi = -log10(concentration in molar units)

# example entries with known answers
Which pKi value belongs to CC(=O)NCCOCCOCCOCCC(=O)NC[C@H]1CC[C@H](C(=O)N[C@@H](Cc2ccc(N=[N+]=[N-])cc2)C(=O)NCCCC[C@H](NC(=O)N[C@@H](CCC(=O)O)C(=O)O)C(=O)O)CC1 [Compound 15] ?
8.18

# input compound: CC(=O)NCCOCCOCCOCCC(=O)NC[C@H]1CC[C@H](C(=O)N[C@@H](Cc2ccc(N)cc2)C(=O)NCCCC[C@H](NC(=O)N[C@@H](CCC(=O)O)C(=O)O)C(=O)O)CC1 [Compound 14] ; wanted: its pKi
8.69

pKi for CC(=O)NCCOCCOCCOCCC(=O)NC[C@H]1CC[C@H](C(=O)N[C@@H](Cc2ccncc2)C(=O)NCCCC[C@H](NC(=O)N[C@@H](CCC(=O)O)C(=O)O)C(=O)O)CC1 [Compound 44] ?
8.90

What does the data say about its pKi? Entry: CC(=O)NCCOCCOCCOCCC(=O)NC[C@H]1CC[C@H](C(=O)N[C@@H](Cc2c[nH]c3ncccc23)C(=O)NCCCC[C@H](NC(=O)N[C@@H](CCC(=O)O)C(=O)O)C(=O)O)CC1 [Compound 22]
8.46

We next turn to a different compound, shown below.
Reported pKi, compound CC(=O)NCCOCCOCCOCCC(=O)NC[C@H]1CC[C@H](C(=O)N[C@@H](Cc2c[nH]c3ccc(F)cc23)C(=O)NCCCC[C@H](NC(=O)N[C@@H](CCC(=O)O)C(=O)O)C(=O)O)CC1 [Compound 12] : ____
9.53
